Source listed as ChEMBL document CHEMBL2177069.

System: Saccharomyces cerevisiae
ASSAY_INFO: Growth inhibition of UFD2-deficient Saccharomyces cerevisiae YDL190C mutant at 20 ug/disc after 24 to 48 hrs by agar diffusion assay
Format: functional
ASSAY_SETUP: read-out: DIZ
READOUT_LABEL: zone of inhibition at 20 µg/disc
Number plus unit, in that order.

Example results:
>  <COMPOUND>
CC1=C([Se]CC(OC(=O)[C@@H](CSSC(C)(C)C)NC(=O)C(C)(C)C)C(=O)NCCCCCC(=O)OCc2ccccc2)C(=O)c2ccccc2C1=O (stereo partly specified)

>  <zone of inhibition at 20 µg/disc>
0 mm

$$$$
>  <COMPOUND>
CC1=C(SCCC(=O)OC(CC[Se]c2ccccc2)C(=O)NC(C)(C)C)C(=O)c2ccccc2C1=O (stereo unspecified)

>  <zone of inhibition at 20 µg/disc>
10 mm

$$$$
>  <COMPOUND>
CC1=C([Se]CC(OC(=O)[C@@H](CO)NC(=O)OC(C)(C)C)C(=O)NC(C)(C)C)C(=O)c2ccccc2C1=O (stereo partly specified)

>  <zone of inhibition at 20 µg/disc>
13 mm

$$$$
>  <COMPOUND>
CC1=C(SCCC(=O)OC(C[Se]c2ccccc2)C(=O)NC(C)(C)C)C(=O)c2ccccc2C1=O (stereo unspecified)

>  <zone of inhibition at 20 µg/disc>
0 mm

$$$$
>  <COMPOUND>
CC1=C(SCCC(=O)OC(C[Se]C2=C(C)C(=O)c3ccccc3C2=O)C(=O)NCCCCCC(=O)OCc2ccccc2)C(=O)c2ccccc2C1=O (stereo unspecified)

>  <zone of inhibition at 20 µg/disc>
0 mm

$$$$

Query: Quick check: zone of inhibition at 20 µg/disc on Saccharomyces cerevisiae, item CC1=C([Se]CC(OC(=O)[C@@H](CSSC(C)(C)C)NC(=O)OC(C)(C)C)C(=O)NC(C)(C)C)C(=O)c2ccccc2C1=O (stereo partly specified) ?
Response: 0 mm

Query: Write down the reported zone of inhibition at 20 µg/disc of CC1=C(SCCC(=O)OC(CC[Se]c2ccccc2)C(=O)NCCCCCC(=O)OCc2ccccc2)C(=O)c2ccccc2C1=O (stereo unspecified) , test system: Saccharomyces cerevisiae.
Response: 0 mm

Query: Give recorded zone of inhibition at 20 µg/disc with Saccharomyces cerevisiae for the following compound: CC1=C([Se]CC(OC(=O)[C@@H](CO)NC(=O)OC(C)(C)C)C(=O)NCCCCCC(=O)OCc2ccccc2)C(=O)c2ccccc2C1=O (stereo partly specified)
Response: 0 mm

Query: Kindly state the measured zone of inhibition at 20 µg/disc obtained for CC1=C([Se]CC(OC(=O)CNC(=O)OC(C)(C)C)C(=O)NCCCCCC(=O)OCc2ccccc2)C(=O)c2ccccc2C1=O (stereo unspecified) with Saccharomyces cerevisiae.
Response: 0 mm

Query: Field: zone of inhibition at 20 µg/disc (Saccharomyces cerevisiae). Entry: CC1=C(SCCC(=O)OC(C[Se]c2ccccc2)C(=O)NCCCCCC(=O)OCc2ccccc2)C(=O)c2ccccc2C1=O (stereo unspecified)
Response: 0 mm

Query: # value lookup — system Saccharomyces cerevisiae, readout zone of inhibition at 20 µg/disc, item CC1=C([Se]CC(OC(=O)CC[Se]c2ccccc2)C(=O)NCCCCCC(=O)OCc2ccccc2)C(=O)c2ccccc2C1=O (stereo unspecified)
Response: 15 mm

----------
Test system: KM12
ASSAY_INFO: Cytotoxicity against human KM12 cells
Assay type: functional
READOUT_LABEL: LC50 (µM)
Numeric answer only, unit µM assumed.

>  <MOLECULE>
CC1=C([Se]CC(OC(=O)[C@@H](CO)NC(=O)OC(C)(C)C)C(=O)NC(C)(C)C)C(=O)c2ccccc2C1=O (some centres undefined)

>  <EXPERIMENTAL_RESULT>
5.5

$$$$
>  <MOLECULE>
CC1=C(SCCC(=O)OC(C[Se]C2=C(C)C(=O)c3ccccc3C2=O)C(=O)NCCCCCC(=O)OCc2ccccc2)C(=O)c2ccccc2C1=O (centres undefined)

>  <EXPERIMENTAL_RESULT>
13.8

$$$$
>  <MOLECULE>
CC1=C([Se]CC(OC(=O)[C@@H](CO)NC(=O)OC(C)(C)C)C(=O)NCCCCCC(=O)OCc2ccccc2)C(=O)c2ccccc2C1=O (some centres undefined)

>  <EXPERIMENTAL_RESULT>
5.5

$$$$

// moving on: another record for LC50
Query: Record request: LC50 value, item CC1=C([Se]CC(OC(=O)[C@@H](CSSC(C)(C)C)NC(=O)C(C)(C)C)C(=O)NCCCCCC(=O)OCc2ccccc2)C(=O)c2ccccc2C1=O (some centres undefined)
Response: 6.76

----------
System: COLO 205
ASSAY_INFO: Cytotoxicity against human COLO205 cells
Format: functional
ASSAY_SETUP: read-out: pLC50 (the source's name) (converted)
READOUT_LABEL: CC50 (µM)
Give just the numeric value; µM need not be written.

Below are worked cases with known answers.
>  <COMPOUND>
CC1=C([Se]CC(OC(=O)[C@@H](CSSC(C)(C)C)NC(=O)C(C)(C)C)C(=O)NCCCCCC(=O)OCc2ccccc2)C(=O)c2ccccc2C1=O (some centres undefined)

>  <QUANTITY_UNIT>
µM

>  <EXPERIMENTAL_RESULT>
6.76

$$$$
>  <COMPOUND>
CC1=C(SCCC(=O)OC(C[Se]C2=C(C)C(=O)c3ccccc3C2=O)C(=O)NCCCCCC(=O)OCc2ccccc2)C(=O)c2ccccc2C1=O (centres undefined)

>  <QUANTITY_UNIT>
µM

>  <EXPERIMENTAL_RESULT>
56.2

$$$$
>  <COMPOUND>
CC1=C([Se]CC(OC(=O)[C@@H](CO)NC(=O)OC(C)(C)C)C(=O)NCCCCCC(=O)OCc2ccccc2)C(=O)c2ccccc2C1=O (some centres undefined)

>  <QUANTITY_UNIT>
µM

>  <EXPERIMENTAL_RESULT>
6.17

$$$$

Continue with the compound presented below.
Query: Query (compound): CC1=C([Se]CC(OC(=O)[C@@H](CO)NC(=O)OC(C)(C)C)C(=O)NC(C)(C)C)C(=O)c2ccccc2C1=O (some centres undefined) ; field requested: CC50
Response: 6.03

----------
This section presents compounds with their documented pIC50 values.
Tested on: HUVEC
ASSAY_INFO: Cytotoxicity against human HUVEC cells after 24 hrs by MTT assay
Format: cell-based
# pIC50 is unitless: minus log10 of the molar concentration; print number only

Some compounds with recorded pIC50:
>  <COMPOUND>
CC1=C([Se]CC(OC(=O)CC[Se]c2ccccc2)C(=O)NCCCCCC(=O)OCc2ccccc2)C(=O)c2ccccc2C1=O (stereo not given)

>  <EXPERIMENTAL_TARGET>
HUVEC

>  <pIC50>
5.52

$$$$
>  <COMPOUND>
CC1=C([Se]CC(OC(=O)[C@@H](CSSC(C)(C)C)NC(=O)OC(C)(C)C)C(=O)NC(C)(C)C)C(=O)c2ccccc2C1=O (stereo not given in full)

>  <EXPERIMENTAL_TARGET>
HUVEC

>  <pIC50>
5.70

$$$$
>  <COMPOUND>
CC1=C(SCCC(=O)OC(CC[Se]c2ccccc2)C(=O)NC(C)(C)C)C(=O)c2ccccc2C1=O (stereo not given)

>  <EXPERIMENTAL_TARGET>
HUVEC

>  <pIC50>
4.89

$$$$
>  <COMPOUND>
CC1=C(SCCC(=O)OC(C[Se]c2ccccc2)C(=O)NCCCCCC(=O)OCc2ccccc2)C(=O)c2ccccc2C1=O (stereo not given)

>  <EXPERIMENTAL_TARGET>
HUVEC

>  <pIC50>
4.64

$$$$
>  <COMPOUND>
CC1=C(SCCC(=O)OC(C[Se]c2ccccc2)C(=O)NC(C)(C)C)C(=O)c2ccccc2C1=O (stereo not given)

>  <EXPERIMENTAL_TARGET>
HUVEC

>  <pIC50>
4.47

$$$$

Query: Which pIC50 value belongs to CC1=C([Se]CC(OC(=O)[C@@H](CO)NC(=O)OC(C)(C)C)C(=O)NCCCCCC(=O)OCc2ccccc2)C(=O)c2ccccc2C1=O (stereo not given in full) ?
Response: 4.46

Query: Which value of pIC50 has been reported for CC1=C([Se]CC(OC(=O)[C@@H](CSSC(C)(C)C)NC(=O)C(C)(C)C)C(=O)NCCCCCC(=O)OCc2ccccc2)C(=O)c2ccccc2C1=O (stereo not given in full) in the records?
Response: 5.00

Query: What value of pIC50 has been reported for the following compound? CC1=C(SCCC(=O)OC(C[Se]C2=C(C)C(=O)c3ccccc3C2=O)C(=O)NCCCCCC(=O)OCc2ccccc2)C(=O)c2ccccc2C1=O (stereo not given)
Response: 5.15

Query: Suppose we examine the compound CC1=C(SCCC(=O)OC(C[Se]C2=C(C)C(=O)c3ccccc3C2=O)C(=O)NC(C)(C)C)C(=O)c2ccccc2C1=O (stereo not given) ; what pIC50 value has been reported?
Response: 6.00

Query: Entry CC1=C([Se]CC(OC(=O)[C@@H](CO)NC(=O)OC(C)(C)C)C(=O)NC(C)(C)C)C(=O)c2ccccc2C1=O (stereo not given in full) : reported pIC50 = ?
Response: 5.52

Query: I would be grateful if you could share the reported pIC50 for CC1=C(SCCC(=O)OC(CC[Se]c2ccccc2)C(=O)NCCCCCC(=O)OCc2ccccc2)C(=O)c2ccccc2C1=O (stereo not given) .
Response: 4.77

Query: Given the compound CC1=C([Se]CC(OC(=O)CNC(=O)OC(C)(C)C)C(=O)NCCCCCC(=O)OCc2ccccc2)C(=O)c2ccccc2C1=O (stereo not given) , what is its reported pIC50?
Response: 4.44
